# TARGET ENTITY: GST-tagged truncated human mutant G2019S LRRK2 (Homo sapiens (Human), UniProt Q5S007, G2019S)
# Sequence (Q5S007 970-2527 G2019S): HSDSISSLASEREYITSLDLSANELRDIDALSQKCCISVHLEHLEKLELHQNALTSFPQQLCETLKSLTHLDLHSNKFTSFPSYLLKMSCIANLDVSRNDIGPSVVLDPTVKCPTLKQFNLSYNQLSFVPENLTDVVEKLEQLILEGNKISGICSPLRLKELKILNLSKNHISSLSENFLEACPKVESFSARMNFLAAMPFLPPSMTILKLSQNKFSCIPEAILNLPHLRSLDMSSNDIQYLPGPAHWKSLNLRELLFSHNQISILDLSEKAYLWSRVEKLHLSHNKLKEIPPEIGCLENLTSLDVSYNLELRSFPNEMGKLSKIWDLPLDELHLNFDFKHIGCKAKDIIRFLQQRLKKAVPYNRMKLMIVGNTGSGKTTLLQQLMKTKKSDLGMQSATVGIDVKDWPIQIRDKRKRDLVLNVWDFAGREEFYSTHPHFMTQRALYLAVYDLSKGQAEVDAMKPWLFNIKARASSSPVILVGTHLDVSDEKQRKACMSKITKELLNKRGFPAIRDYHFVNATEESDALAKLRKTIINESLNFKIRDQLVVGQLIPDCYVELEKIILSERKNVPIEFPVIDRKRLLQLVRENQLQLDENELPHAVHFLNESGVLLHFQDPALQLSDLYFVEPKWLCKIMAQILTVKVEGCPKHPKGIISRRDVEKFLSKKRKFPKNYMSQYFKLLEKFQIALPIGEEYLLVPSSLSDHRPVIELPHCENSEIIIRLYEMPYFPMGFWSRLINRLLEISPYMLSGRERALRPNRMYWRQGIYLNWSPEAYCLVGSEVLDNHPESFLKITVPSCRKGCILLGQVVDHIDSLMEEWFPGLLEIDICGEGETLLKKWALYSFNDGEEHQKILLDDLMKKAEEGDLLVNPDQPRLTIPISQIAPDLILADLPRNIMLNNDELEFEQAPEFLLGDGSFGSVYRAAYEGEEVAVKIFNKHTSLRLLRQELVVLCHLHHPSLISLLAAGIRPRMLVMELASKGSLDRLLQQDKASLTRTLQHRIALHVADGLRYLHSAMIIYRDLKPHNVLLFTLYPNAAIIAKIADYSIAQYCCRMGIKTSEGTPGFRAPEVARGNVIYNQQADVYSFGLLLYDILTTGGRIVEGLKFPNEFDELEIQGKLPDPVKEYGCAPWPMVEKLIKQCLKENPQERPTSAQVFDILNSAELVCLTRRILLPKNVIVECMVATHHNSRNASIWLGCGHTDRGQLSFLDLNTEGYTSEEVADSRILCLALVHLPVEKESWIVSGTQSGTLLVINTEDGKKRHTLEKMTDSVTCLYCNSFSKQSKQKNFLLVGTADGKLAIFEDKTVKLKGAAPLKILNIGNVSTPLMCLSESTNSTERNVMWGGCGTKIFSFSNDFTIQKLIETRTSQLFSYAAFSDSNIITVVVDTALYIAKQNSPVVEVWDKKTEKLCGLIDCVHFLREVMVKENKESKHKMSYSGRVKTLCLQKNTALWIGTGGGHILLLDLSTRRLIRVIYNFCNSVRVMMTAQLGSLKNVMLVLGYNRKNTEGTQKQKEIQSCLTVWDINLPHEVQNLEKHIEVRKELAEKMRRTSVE
# MEASUREMENT PROTOCOL: LRRK2 G2019S Km ATP LanthaScreen Assay
# MEASUREMENT CONTEXT: 134 μM ATP (Km ATP); fluorescein-labeled LRRKtide substrate; mean IC50 values
I'd be grateful if you could share measured IC50 for these entries.
The answer is to be given in nM; state only the numeric part.

Requested read-out: IC50. Entry: CC(C)(O)C12CC(C1)N(c1cc(-n3ncc4cnc(C5(C#N)CC56CC6)cc43)ccn1)C2 (single isomer, unassigned) [Example 6.7-1]
59

Requested read-out: IC50. Entry: CCc1cc(-n2ncc3ccc([C@]4(C#N)CC45CC5)cc32)nc(C)n1 [Example 4.26]
3.1

Requested read-out: IC50. Entry: CC(C)(O)[C@H]1CN(c2cc(-n3ncc4ccc([C@]5(C#N)CC56CC6)cc43)ncn2)C[C@H]1F [Example 4.12-1]
1.2

Requested read-out: IC50. Entry: Cc1nc(N2CC3(C(C)(C)O)CC2C3)cc(-n2ncc3ccc(C4(C#N)CC45CC5)cc32)n1 (single isomer, unassigned) [Example 2.4-1]
2.1

Requested read-out: IC50. Entry: CC1(O)CC2(CN(c3cc(-n4ncc5ccc([C@@]6(C#N)CC67CC7)cc54)ncn3)C2)C1 [Example 3.9-1]
2.5

Requested read-out: IC50. Entry: CC(C)(O)C12CC(C1)N(c1cc(-n3ncc4c(F)cc(C5(C#N)CC56CC6)cc43)ncn1)C2 (single isomer, unassigned) [Example 4.15-2]
2.3

====

I'd be grateful if you could share measured IC50 for these entries.
# TARGET ENTITY: GST-tagged truncated human mutant G2019S LRRK2 (Homo sapiens (Human), UniProt Q5S007, G2019S)
# MEASUREMENT PROTOCOL: LRRK2 G2019S Km ATP LanthaScreen Assay
# MEASUREMENT CONTEXT: 134 μM ATP (Km ATP); fluorescein-labeled LRRKtide substrate; mean IC50 values
Kindly format the answer as number then unit.

Requested read-out: IC50. Entry: Cc1cc(-n2ncc3ccc([C@]4(C#N)CC45CC5)cc32)cc(C)n1 [Example 11.5]
7.8 nM

Requested read-out: IC50. Entry: Cc1cc(-n2ncc3ccc(C4(C#N)CC45CC5)cc32)cc(N2CC3(C(C)(C)O)CC2C3)n1 (single isomer, unassigned) [Example 7.3-2]
4.6 nM

Requested read-out: IC50. Entry: COCc1nc(N2CCN(C3COC3)[C@H](C)C2)cc(-n2ncc3ccc([C@]4(C#N)CC45CC5)cc32)n1 [Example 4.11-1]
1.3 nM

Requested read-out: IC50. Entry: CC(C)(O)[C@@H]1CCN(c2cc(-n3ncc4cnc(C5(C#N)CC56CC6)cc43)ccn2)C1 (single isomer, unassigned) [Example 6.6-1]
28.5 nM

Requested read-out: IC50. Entry: C[C@H]1CN(c2cc(-n3ncc4ccc([C@]5(C#N)CC56CC6)cc43)ncn2)CCN1S(C)(=O)=O [Example 4.8]
1.2 nM

Requested read-out: IC50. Entry: CC(C)(O)[C@@H]1CCN(c2cc(-n3ncc4cc(F)c(C5(C#N)CC56CC6)cc43)ncn2)C1 (single isomer, unassigned) [Example 5.7-2]
2.6 nM

The measurements presented in this section are drawn from patent US11161854B2.
